Target: T1, his-tagged murine TIGIT (Acro Biosystems #TIT-M52E6) (murine, UniProt P86176 29-148, limits assumed)
T1 construct: Bought protein; also called mouse his-tagged TIGIT; not shown: his tag
T1 sequence (looked up): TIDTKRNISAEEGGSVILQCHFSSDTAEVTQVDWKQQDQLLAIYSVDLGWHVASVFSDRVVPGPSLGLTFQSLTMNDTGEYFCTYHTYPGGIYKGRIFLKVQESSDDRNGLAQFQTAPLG
Assay: SPR (Carterra LSA), scFv-Fc captured, His-TIGIT analyte
Procedure: Binding affinities of anti-TIGIT antibodies to human, cyno, and murine TIGIT were measured by Surface Plasmon Resonance (SPR) on a Carterra LSA instrument. Goat anti-human Fc antibody was amine coupled to a HC30M chip. ScFv-Fc supernatants were diluted 30-fold with HBSTE and were captured by the anti-human Fc coupled HC30M chip. A 1:2 dilution series of his-tagged human TIGIT, starting at 400 nM, was injected onto the chip for binding. […] Data were analyzed using the Carterra™ Kinetics software.
Listing of recorded Kd by entry.
Provide the reading as a plain figure in nM.

Consider the binder shown here: 43586p2.H02 (scFv, V domains shown) VH: EVQLLESGGGLVQPGGSLRLSCATSGFTVSDHYVSWVRQAPGKGLEWVSTSSSTNWNDGRTYYADSVKGRFTISRDNSENTLYLQMNSLRAEDTAVYYCAKGSYGMDVWGQGTTVTVSS VL: QSVLTQPPSASGTPGQRVTISCSASNSYIGTKYFYWYQQLPGTAPKLLIYLDSQRPSGVPDRFSGSKSGTSVSLAISGLQSEDEADYYCAFWDDHLHGWVFGGGTKLTVL What is its recorded Kd? 3.94

Try the binder 43586p1.2.E2 (scFv, V domains shown) VH: EVQLLESGGGLVQPGGSLRLSCAASGFTFTSYLMSWVRQAPGKGLEWVSTITWDGDRTYYADSVKGRFTISRDNSKNTLYLQMNSLRVGDTAVYYCAKHWTVFQYGMDVWGQGTTVTVSS VL: QSVLTQPASASGTPGQRVTISCSGTISNIETKYVSWYQQLPGTAPKLLIYGNHQRPSGVPDRFSGSKSGTSASLAISGLQSEDEADYYCASWENDLKSWVFGGGTKLTVL 122

How about 43586p2.G10 (scFv, V domains shown) VH: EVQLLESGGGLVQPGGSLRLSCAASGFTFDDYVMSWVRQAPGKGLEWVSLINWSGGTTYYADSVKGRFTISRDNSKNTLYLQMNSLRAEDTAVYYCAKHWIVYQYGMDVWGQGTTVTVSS VL: QSVLTQPSSASGTPGQRVTISCSGTISNIETKYVSWYKYVSWYQQLPGTAPKLLIYNNVQRPSGVPDRFSGSQSGTSASLAISGLQSEDEAHYYCASWEGGLNSWVFGGGTKLTVL ? 3.05
